- SYSTEM NAME: human CB2 receptor (Homo sapiens)
- Construct: expressed in transfected cells; b94 says HEK for CB2
- Sequence (P34972 whole entry): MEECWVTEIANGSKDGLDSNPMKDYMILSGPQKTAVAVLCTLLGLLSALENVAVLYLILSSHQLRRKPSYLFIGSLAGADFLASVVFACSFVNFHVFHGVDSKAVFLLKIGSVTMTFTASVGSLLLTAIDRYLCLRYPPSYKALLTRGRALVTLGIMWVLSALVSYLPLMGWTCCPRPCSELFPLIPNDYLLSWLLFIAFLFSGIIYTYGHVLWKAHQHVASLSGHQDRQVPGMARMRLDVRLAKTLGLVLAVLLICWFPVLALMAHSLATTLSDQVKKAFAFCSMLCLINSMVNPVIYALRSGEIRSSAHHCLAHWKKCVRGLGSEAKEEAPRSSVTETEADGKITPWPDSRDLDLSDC
- PROCEDURE SUMMARY: CB2 receptor binding, [3H]CP55,940 displacement in membranes of transfected cells
- RECORDED CONDITIONS: Table 1B; mean±SEM; read-out: CB2 Ki
REPORTED PROPERTY: Ki (nM)
Lab book: enter the figure in nM, no units written.

If you can, please state the reported Ki value of CC1=CC[C@@H]2[C@@H](C1)c1c(O)cc(C(C)(C)CCCCC(=O)NN3CCCCCC3)cc1OC2(C)C [O-2489, N-(Homo-piperidin-1-yl)-carboxamido] .
35.3

If you can, please state the reported Ki value of CC1=CC[C@@H]2[C@@H](C1)c1c(O)cc(C(C)(C)CCCCC(=O)N3CCOCC3)cc1OC2(C)C [O-2372, Morpholino-carboxamido] .
0.57

If you can, please state the reported Ki value of CNC(=O)CCCCC(C)(C)c1cc(O)c2c(c1)OC(C)(C)[C@@H]1CC=C(C)C[C@@H]21 [O-2490, N-(Methyl)carboxamido] .
3.16

If you can, please state the reported Ki value of CC1=CC[C@@H]2[C@@H](C1)c1c(O)cc(C(C)(C)CCCCC(=O)N3CCCCCC3)cc1OC2(C)C [O-2421, Homopiperidino-carboxamido] .
3.45

If you can, please state the reported Ki value of CC1=CC[C@@H]2[C@@H](C1)c1c(O)cc(C(C)(C)CCCCN(C(=O)N3CCOCC3)C(=O)N3CCOCC3)cc1OC2(C)C [O-2620, Di(morpholino-1-carboxylic acid) amide] .
772

If you can, please state the reported Ki value of CC1=CC[C@@H]2[C@@H](C1)c1c(O)cc(C(C)(C)CCCCC(=O)N3CCN(C)CC3)cc1OC2(C)C [O-2381, Methylepiperazino-carboxamido] .
389

###

- Tested on: mice
- PROCEDURE SUMMARY: Relative immobility (R.I.), ring-immobility test, mouse tetrad
- Format: in vivo
- RECORDED CONDITIONS: Mus musculus, iv, vehicle E:E:S (1:1:18), read-out: R.I. ED50 (relative immobility)
REPORTED PROPERTY: ED50 (µmol/kg)
Lab book: enter the figure in µmol/kg, no units written.

Write down the reported ED50 of CC1=CC[C@@H]2[C@@H](C1)c1c(O)cc(C(C)(C)CCCCn3cccn3)cc1OC2(C)C [O-2715, Pyrazol-1-yl] , test system: mice.
0.07

Write down the reported ED50 of CC1=CC[C@@H]2[C@@H](C1)c1c(O)cc(C(C)(C)CCCCC(=O)NN3CCCC3)cc1OC2(C)C [O-2543, N-(Pyrrolidin-yl)-carboxamido] , test system: mice.
25.8

Write down the reported ED50 of CC1=CC[C@@H]2[C@@H](C1)c1c(O)cc(C(C)(C)CCCCC(=O)N3CCCCCC3)cc1OC2(C)C [O-2421, Homopiperidino-carboxamido] , test system: mice.
0.86

Write down the reported ED50 of CC1=CC[C@@H]2[C@@H](C1)c1c(O)cc(C(C)(C)CCCCC(=O)N3CCCC3)cc1OC2(C)C [O-2399, Pyrrolidino-carboxamido] , test system: mice.
0.15

###

- Test system: mice
- PROCEDURE SUMMARY: Relative immobility (R.I.), ring-immobility test, mouse tetrad
- Type: in vivo
- RECORDED CONDITIONS: Mus musculus, iv, vehicle E:E:S (1:1:18), read-out: R.I. ED50 (relative immobility)
For each of the compounds below, state its log10(ED50).
Hi team, quick reminder: these entries are log10 of ED50 (µmol/kg).

If you can, please state the reported log10(ED50) value of CC1=CC[C@@H]2[C@@H](C1)c1c(O)cc(C(C)(C)CCCCC(=O)N3CCCCC3)cc1OC2(C)C [O-2373, Piperidino-carboxamido] .
-1.40

If you can, please state the reported log10(ED50) value of CC1=CC[C@@H]2[C@@H](C1)c1c(O)cc(C(C)(C)CCCCC(N)=O)cc1OC2(C)C [O-2352, Carboxamido] .
-0.03

If you can, please state the reported log10(ED50) value of CC1=CC[C@@H]2[C@@H](C1)c1c(O)cc(C(C)(C)CCCCn3ccnc3)cc1OC2(C)C [O-2545, Imidazol-1-yl] .
-0.89

If you can, please state the reported log10(ED50) value of CC1=CC[C@@H]2[C@@H](C1)c1c(O)cc(C(C)(C)CCCCC(=O)N3CCN(C)CC3)cc1OC2(C)C [O-2381, Methylepiperazino-carboxamido] .
2.26

If you can, please state the reported log10(ED50) value of CC1=CC[C@@H]2[C@@H](C1)c1c(O)cc(C(C)(C)CCCCn3cncn3)cc1OC2(C)C [O-2716, 1,2,4-Triazol-1-yl] .
-0.70

If you can, please state the reported log10(ED50) value of CC1=CC[C@@H]2[C@@H](C1)c1c(O)cc(C(C)(C)CCCCC(=O)N3CCOCC3)cc1OC2(C)C [O-2372, Morpholino-carboxamido] .
-1.52

###

- SYSTEM NAME: human CB1 receptor (Homo sapiens)
- Construct: expressed in transfected cells; b94 says CHO for CB1
- PROCEDURE SUMMARY: CB1 receptor binding, [3H]CP55,940 displacement in membranes of transfected cells
- RECORDED CONDITIONS: CB1 Ki
For each of the molecules below, state its log10 Ki.
Hi team, quick reminder: these entries are log10 of Ki (nM).

If you can, please state the reported log10 Ki value of CC1=CC[C@@H]2[C@@H](C1)c1c(O)cc(C(C)(C)CCCCNC(=O)N3CCOCC3)cc1OC2(C)C [O-2619, Morpholino-1-carboxylic acid amide] .
1.27

If you can, please state the reported log10 Ki value of CC1=CC[C@@H]2[C@@H](C1)c1c(O)cc(C(C)(C)CCCCC(=O)N3CCN(C)CC3)cc1OC2(C)C [O-2381, Methylepiperazino-carboxamido] .
2.05

If you can, please state the reported log10 Ki value of CC1=CC[C@@H]2[C@@H](C1)c1c(O)cc(C(C)(C)CCCCC(=O)N3CCOCC3)cc1OC2(C)C [O-2372, Morpholino-carboxamido] .
0.11

If you can, please state the reported log10 Ki value of CC1=CC[C@@H]2[C@@H](C1)c1c(O)cc(C(C)(C)CCCCC(=O)NN3CCCCCC3)cc1OC2(C)C [O-2489, N-(Homo-piperidin-1-yl)-carboxamido] .
1.20

If you can, please state the reported log10 Ki value of CC1=CC[C@@H]2[C@@H](C1)c1c(O)cc(C(C)(C)CCCCC(=O)N3CCCCC3)cc1OC2(C)C [O-2373, Piperidino-carboxamido] .
-0.02

If you can, please state the reported log10 Ki value of CC1=CC[C@@H]2[C@@H](C1)c1c(O)cc(C(C)(C)CCCCn3cccn3)cc1OC2(C)C [O-2715, Pyrazol-1-yl] .
0.29

###

- SYSTEM NAME: human CB1 receptor (Homo sapiens, UniProt P21554)
- Construct: expressed in transfected cells; b94 says CHO for CB1
- Sequence (P21554 whole entry): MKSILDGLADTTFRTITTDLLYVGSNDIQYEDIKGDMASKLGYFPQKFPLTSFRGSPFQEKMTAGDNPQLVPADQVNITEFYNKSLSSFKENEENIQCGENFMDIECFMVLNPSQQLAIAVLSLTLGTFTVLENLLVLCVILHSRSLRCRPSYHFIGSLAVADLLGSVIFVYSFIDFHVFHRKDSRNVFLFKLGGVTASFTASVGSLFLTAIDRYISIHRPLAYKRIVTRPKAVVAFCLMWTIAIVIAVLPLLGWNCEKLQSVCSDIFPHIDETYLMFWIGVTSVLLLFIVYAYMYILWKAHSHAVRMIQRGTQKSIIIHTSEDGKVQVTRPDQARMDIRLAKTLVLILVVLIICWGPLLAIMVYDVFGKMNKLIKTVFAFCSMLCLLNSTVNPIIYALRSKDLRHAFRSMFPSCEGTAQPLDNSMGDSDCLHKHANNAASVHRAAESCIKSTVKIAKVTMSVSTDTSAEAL
- PROCEDURE SUMMARY: [35S]GTPγS binding assay in membranes of CB1 expressing cells
- Format: biochemical
- RECORDED CONDITIONS: maximal GTPγS binding as percentage of stimulation produced by CP 55,940; read-out: CB1 % CP Stim
REPORTED PROPERTY: Emax (%)
Lab book: enter the figure in %, no units written.

If you can, please state the reported Emax value of CC1=CC[C@@H]2[C@@H](C1)c1c(O)cc(C(C)(C)CCCCC(=O)N3CCCCC3)cc1OC2(C)C [O-2373, Piperidino-carboxamido] .
119

If you can, please state the reported Emax value of CC1=CC[C@@H]2[C@@H](C1)c1c(O)cc(C(C)(C)CCCCNC(=O)N3CCOCC3)cc1OC2(C)C [O-2619, Morpholino-1-carboxylic acid amide] .
116

If you can, please state the reported Emax value of CC1=CC[C@@H]2[C@@H](C1)c1c(O)cc(C(C)(C)CCCCC(=O)N3CCCC3)cc1OC2(C)C [O-2399, Pyrrolidino-carboxamido] .
117

If you can, please state the reported Emax value of CC1=CC[C@@H]2[C@@H](C1)c1c(O)cc(C(C)(C)CCCCn3ccnc3C)cc1OC2(C)C [O-2651, 2-Methyl-imidazol-1-y1] .
33.4

If you can, please state the reported Emax value of CNC(=O)CCCCC(C)(C)c1cc(O)c2c(c1)OC(C)(C)[C@@H]1CC=C(C)C[C@@H]21 [O-2490, N-(Methyl)carboxamido] .
92.7

If you can, please state the reported Emax value of CC1=CC[C@@H]2[C@@H](C1)c1c(O)cc(C(C)(C)CCCCC(=O)N3CCCCCC3)cc1OC2(C)C [O-2421, Homopiperidino-carboxamido] .
81.8

If you can, please state the reported Emax value of CC1=CC[C@@H]2[C@@H](C1)c1c(O)cc(C(C)(C)CCCCn3cccn3)cc1OC2(C)C [O-2715, Pyrazol-1-yl] .
93

If you can, please state the reported Emax value of CC1=CC[C@@H]2[C@@H](C1)c1c(O)cc(C(C)(C)CCCCC(=O)NN3CCCCCC3)cc1OC2(C)C [O-2489, N-(Homo-piperidin-1-yl)-carboxamido] .
112

If you can, please state the reported Emax value of CC1=CC[C@@H]2C(C1)c1c(OC(=O)CCCN(C(C)C)C(C)C)cc(C(C)(C)CCCCC(=O)N3CCOCC3)cc1OC2(C)C (some centres unmarked) [O-2694] .
120

If you can, please state the reported Emax value of CC1=CC[C@@H]2[C@@H](C1)c1c(O)cc(C(C)(C)CCCCC(=O)N3CCOCC3)cc1OC2(C)C [O-2372, Morpholino-carboxamido] .
120

If you can, please state the reported Emax value of CC1=CC[C@@H]2[C@@H](C1)c1c(O)cc(C(C)(C)CCCCC(=O)NN3CCOCC3)cc1OC2(C)C [O-2544, N-(Morpholin-1-yl)-carboxamido] .
116

If you can, please state the reported Emax value of CC1=CC[C@@H]2[C@@H](C1)c1c(O)cc(C(C)(C)CCCCC(=O)NN3CCCC3)cc1OC2(C)C [O-2543, N-(Pyrrolidin-yl)-carboxamido] .
71.3

If you can, please state the reported Emax value of CC1=CC[C@@H]2[C@@H](C1)c1c(O)cc(C(C)(C)CCCCC(N)=O)cc1OC2(C)C [O-2352, Carboxamido] .
95

If you can, please state the reported Emax value of CC1=CC[C@@H]2[C@@H](C1)c1c(O)cc(C(C)(C)CCCCn3cncn3)cc1OC2(C)C [O-2716, 1,2,4-Triazol-1-yl] .
93.1
